Molecular target: human CD73 on the cell surface (293T/17-huCD73 cells) (human) (UniProt P21589)
Sequence (P21589 27-549): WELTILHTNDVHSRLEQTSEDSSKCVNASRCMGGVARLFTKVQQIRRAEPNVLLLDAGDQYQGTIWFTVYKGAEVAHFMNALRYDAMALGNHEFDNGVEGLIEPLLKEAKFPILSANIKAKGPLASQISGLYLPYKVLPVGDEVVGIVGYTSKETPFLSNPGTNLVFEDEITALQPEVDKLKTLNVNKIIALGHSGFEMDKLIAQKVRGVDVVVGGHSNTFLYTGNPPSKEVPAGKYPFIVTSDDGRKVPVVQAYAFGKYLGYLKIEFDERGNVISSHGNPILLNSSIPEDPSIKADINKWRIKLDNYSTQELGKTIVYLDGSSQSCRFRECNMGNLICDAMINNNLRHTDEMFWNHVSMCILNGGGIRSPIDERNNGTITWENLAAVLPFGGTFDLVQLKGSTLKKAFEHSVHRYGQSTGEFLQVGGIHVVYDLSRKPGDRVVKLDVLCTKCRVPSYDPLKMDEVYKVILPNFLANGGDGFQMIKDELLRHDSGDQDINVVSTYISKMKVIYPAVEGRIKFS
Assay: cell-based or functional assay
REPORTED METRIC: EC50, reversal of AMP-mediated human CD4+ T cell proliferation inhibition (nM)
Answer in nM, number only, no unit symbol.

BINDER	MEAS VALUE
JB24H3L3 (antibody, human IgG1, kappa, V domains shown) VH: QVQLVQSGAEVKKPGASVKMSCKASGYTFTDYNMHWVKQSHGKSLEWIGYIKPHNAGTTYNPKFEGRATLTVDTSASTAYMELRSLRSEDTAVYYCVRSDFLYWYFDVWGQGTTVTVSS VL: DIVMTQSPSSLSASVGDRVTITCTASSSVSSSYLHWYQQKPGSSPKLWIYSTSNLASGVPGRFSGSGSGTDYTLTISSLQPEDFATYYCHQYHRSPLTFGAGTKLEIKR	0.068

Now for the binder whose EC50, reversal of AMP-mediated human CD4+ T cell proliferation inhibition we want.
Looking up JB24H2L1 (antibody, human IgG1, kappa, V domains shown) VH: QVQLVQSGAEVKKPGASVKMSCKASGYTFTDYNMHWVRQSPGKSLEWIGYIKPHNAGTTYNPKFEGRATLTVDTSASTAYMELSSLRSEDTAVYYCVRSDFLYWYFDVWGQGTTVTVSS VL: DIQMTQSPSSLSASVGDRVTITCTASSSVSSSYLHWYQQKPGKAPKLLIYSTSNLASGVPSRFSGSGSGTDFTLTISSLQPEDFATYYCHQYHRSPLTFGAGTKLEIKR , I found its EC50, reversal of AMP-mediated human CD4+ T cell proliferation inhibition recorded as 0.032
